System: PANC1 cells
Assay: Sphere formation assay (cancer stemness)
Assay type: cell-based
Conditions: Homo sapiens, PANC-1, read-out: concentration exhibiting at least 50% inhibition on the sphere forming efficiency
pIC50: −log10 of the molar value.
Item-by-item account of pIC50
measured endpoint: pIC50

molecule | assay value
CC1=C[C@H]2[C@@]3(O)[C@H](C)C[C@]4(OC(=O)[C@@H](N)C5Cc6ccccc6C5)[C@H]([C@@H]3C=C(CO)C[C@]2(O)C1=O)C4(C)C | ≥ 6.82
CC1=C[C@H]2[C@@]3(O)[C@H](C)C[C@]4(OC(=O)C(C)(C)C)[C@H]([C@@H]3C=C(CO)C[C@]2(O)C1=O)C4(C)C | ≥ 6.82
CC1=C[C@H]2[C@@]3(O)[C@H](C)C[C@]4(OC(=O)[C@@H](N)[C@]56C[C@H]7C[C@H](C[C@H](C7)C5)C6)[C@H]([C@@H]3C=C(CO)C[C@]2(O)C1=O)C4(C)C | ≥ 7.30
CC1=C[C@H]2[C@@]3(O)[C@H](C)C[C@]4(OC(=O)[C@@H](N)CCCCCCc5ccccc5)[C@H]([C@@H]3C=C(CO)C[C@]2(O)C1=O)C4(C)C | ≥ 7.30
CC1=C[C@H]2[C@@]3(O)[C@H](C)C[C@]4(OC(=O)[C@@H](N)C(C)(C)C)[C@H]([C@@H]3C=C(CO)C[C@]2(O)C1=O)C4(C)C | ≥ 5.82
CC1=C[C@H]2[C@@]3(O)[C@H](C)C[C@]4(OC(=O)[C@@H](N)CCC5CCCCC5)[C@H]([C@@H]3C=C(CO)C[C@]2(O)C1=O)C4(C)C | ≥ 6.82
CC1=C[C@H]2[C@@]3(O)[C@H](C)C[C@]4(OC(=O)[C@@H](N)CCCc5ccccc5)[C@H]([C@@H]3C=C(CO)C[C@]2(O)C1=O)C4(C)C | ≥ 5.82
CC1=C[C@H]2[C@@]3(O)[C@H](C)C[C@]4(OC(=O)[C@H](N)CCCCCCc5ccccc5)[C@H]([C@@H]3C=C(CO)C[C@]2(O)C1=O)C4(C)C | ≥ 6.82

###

Tested on: PANC1 cells
Assay: Sphere formation assay (cancer stemness)
Format: cell-based
Settings: Homo sapiens, PANC-1, read-out: concentration exhibiting at least 50% inhibition on the sphere forming efficiency; PANC1 single cell suspension, spheres counted after 3-4 weeks

compound | IC50
CC(=O)O[C@@]12C[C@@H](C)[C@@]3(O)[C@@H](C=C(CO)C[C@]4(O)C(=O)C(C)=C[C@@H]34)[C@@H]1C2(C)C [Compound K101, prostratin, reference compound] | ≤ 500 nM

###

Test system: HL-60 (Leukemia) cell line
Experiment: Proliferation of HL-60
Assay type: cell-based
Conditions: HL-60; value in parenthesis
Experimental: The diterpenoid compounds were tested in A549, a non-small cell lung cancer cell line harboring a K-Ras activating mutation. Briefly, A549 cells at a density of 1,000 cells/well were seeded in 96-well plates and incubated at 37° C. for 24 hours. […] After 96 hours of incubation, 50 μL of CellTiter Glo reagent (Promega) was added to each well and luminescence was measured after 10 minutes using EnVision (PerkinElmer). […]
measured endpoint: ratio of (IC50 of K01)/(IC50 of compound), HL-60

molecule | study target | assay value
CC1=C[C@H]2[C@@]3(O)[C@H](C)C[C@]4(OC(=O)[C@@H](N)CCC5CCCCC5)[C@H]([C@@H]3C=C(CO)C[C@]2(O)C1=O)C4(C)C | HL-60 (Leukemia) cell line | 27.7
CC1=C[C@H]2[C@@]3(O)[C@H](C)C[C@]4(OC(=O)[C@@H](N)Cc5ccc(C(F)(F)F)cc5)[C@H]([C@@H]3C=C(CO)C[C@]2(O)C1=O)C4(C)C | HL-60 (Leukemia) cell line | 6.43
CC/C=C\C/C=C\C/C=C\C/C=C\C/C=C\C/C=C\CCC(=O)O[C@@]12C[C@@H](C)[C@@]3(O)[C@@H](C=C(CO)C[C@]4(O)C(=O)C(C)=C[C@@H]34)[C@@H]1C2(C)C | HL-60 (Leukemia) cell line | 80
CC1=C[C@H]2[C@@]3(O)[C@H](C)C[C@]4(OC(=O)C(C)(C)C)[C@H]([C@@H]3C=C(CO)C[C@]2(O)C1=O)C4(C)C | HL-60 (Leukemia) cell line | 5.29
CC1=C[C@H]2[C@@]3(O)[C@H](C)C[C@]4(OC(=O)[C@H](N)CCCCCCc5ccccc5)[C@H]([C@@H]3C=C(CO)C[C@]2(O)C1=O)C4(C)C | HL-60 (Leukemia) cell line | 4.43
CC1=C[C@H]2[C@@]3(O)[C@H](C)C[C@]4(OC(=O)Cc5ccccc5)[C@H]([C@@H]3C=C(CO)C[C@]2(O)C1=O)C4(C)C | HL-60 (Leukemia) cell line | 18
CC1=C[C@H]2[C@@]3(O)[C@H](C)C[C@]4(OC(=O)CCCc5ccccc5)[C@H]([C@@H]3C=C(CO)C[C@]2(O)C1=O)C4(C)C | HL-60 (Leukemia) cell line | 32.7
CC1=C[C@H]2[C@@]3(O)[C@H](C)C[C@]4(OC(=O)CCc5ccc(C(F)(F)F)cc5)[C@H]([C@@H]3C=C(CO)C[C@]2(O)C1=O)C4(C)C | HL-60 (Leukemia) cell line | 72
CC1=C[C@H]2[C@@]3(O)[C@H](C)C[C@]4(OC(=O)[C@@H](N)C5Cc6ccccc6C5)[C@H]([C@@H]3C=C(CO)C[C@]2(O)C1=O)C4(C)C | HL-60 (Leukemia) cell line | 1.79
CC1=C[C@H]2[C@@]3(O)[C@H](C)C[C@]4(OC(=O)CCc5ncc(-c6ccc(Cl)cc6)o5)[C@H]([C@@H]3C=C(CO)C[C@]2(O)C1=O)C4(C)C | HL-60 (Leukemia) cell line | 5.71
CC1=C[C@H]2[C@@]3(O)[C@H](C)C[C@]4(OC(=O)[C@@H](N)[C@]56C[C@H]7C[C@H](C[C@H](C7)C5)C6)[C@H]([C@@H]3C=C(CO)C[C@]2(O)C1=O)C4(C)C | HL-60 (Leukemia) cell line | 16.2
CC1=C[C@H]2[C@@]3(O)[C@H](C)C[C@]4(OC(=O)[C@H](N)C(C)(C)c5ccc(C(F)(F)F)cc5)[C@H]([C@@H]3C=C(CO)C[C@]2(O)C1=O)C4(C)C | HL-60 (Leukemia) cell line | 2.75
CC1=C[C@H]2[C@@]3(O)[C@H](C)C[C@]4(OC(=O)[C@@H](N)C(C)(C)c5ccc(C(F)(F)F)cc5)[C@H]([C@@H]3C=C(CO)C[C@]2(O)C1=O)C4(C)C | HL-60 (Leukemia) cell line | 12
CC1=C[C@H]2[C@@]3(O)[C@H](C)C[C@]4(OC(=O)[C@@H](N)CC5CCCCC5)[C@H]([C@@H]3C=C(CO)C[C@]2(O)C1=O)C4(C)C | HL-60 (Leukemia) cell line | 2.32
CC1=C[C@H]2[C@@]3(O)[C@H](C)C[C@]4(OC(=O)[C@@H](N)CCCc5ccccc5)[C@H]([C@@H]3C=C(CO)C[C@]2(O)C1=O)C4(C)C | HL-60 (Leukemia) cell line | 1.79
CC1=C[C@H]2[C@@]3(O)[C@H](C)C[C@]4(OC(=O)[C@@H](N)Cc5ccccc5)[C@H]([C@@H]3C=C(CO)C[C@]2(O)C1=O)C4(C)C | HL-60 (Leukemia) cell line | 0.9
CC1=C[C@H]2[C@@]3(O)[C@H](C)C[C@]4(OC(=O)[C@@H](N)CCCCCCc5ccccc5)[C@H]([C@@H]3C=C(CO)C[C@]2(O)C1=O)C4(C)C | HL-60 (Leukemia) cell line | 12.1
CC1=C[C@H]2[C@@]3(O)[C@H](C)C[C@]4(OC(=O)CCC5CCCC5)[C@H]([C@@H]3C=C(CO)C[C@]2(O)C1=O)C4(C)C | HL-60 (Leukemia) cell line | 9.23
CC1=C[C@H]2[C@@]3(O)[C@H](C)C[C@]4(OC(=O)[C@@H](N)CCc5ccccc5)[C@H]([C@@H]3C=C(CO)C[C@]2(O)C1=O)C4(C)C | HL-60 (Leukemia) cell line | 3.21
